procedure.summary: Drug-drug interaction study with rifampin (CYP3A4 inducer): sotorasib plasma PK in healthy subjects
Assay type: in vivo, human
condition.context: human, plasma, 960 mg, 960 mg sotorasib + 600 mg rifampin on day 18 (Test), multiple daily dosing of rifampin; read-out: AUCinf (GLSM)
measured.attribute: AUC(0-inf)
I'd appreciate it if you wrote the number followed by its unit.

Form: compound = C=CC(=O)N1CCN(c2nc(=O)n(-c3c(C)ccnc3C(C)C)c3nc(-c4c(O)cccc4F)c(F)cc23)[C@@H](C)C1 (atropisomer, axis not shown; (M)) ; AUC(0-inf) = 12400 ng·h/mL

###

procedure.summary: Drug-drug interaction study with rifampin (CYP3A4 inducer): sotorasib plasma PK in healthy subjects
Format: in vivo, human
condition.context: human, plasma, 960 mg, 960 mg sotorasib on day 1 (Reference), healthy subjects; read-out: AUCinf (GLSM)
measured.attribute: AUC(0-inf) (ng·h/mL)
Give the value in ng·h/mL but do not write ng·h/mL after it.

Form: compound = C=CC(=O)N1CCN(c2nc(=O)n(-c3c(C)ccnc3C(C)C)c3nc(-c4c(O)cccc4F)c(F)cc23)[C@@H](C)C1 (atropisomer, axis not shown; (M)) [Sotorasib] ; AUC(0-inf) = 25600

###

procedure.summary: Single-dose PK study in subjects with moderate or severe hepatic impairment compared to healthy subjects
Type: in vivo, human
condition.context: human, in vivo, po, 960 mg; read-out: median tmax
measured.attribute: Tmax

Form: compound = C=CC(=O)N1CCN(c2nc(=O)n(-c3c(C)ccnc3C(C)C)c3nc(-c4c(O)cccc4F)c(F)cc23)[C@@H](C)C1 (atropisomer, axis not shown; (M)) ; Tmax = 1 to 1.47 h

###

procedure.summary: Drug-drug interaction study with rifampin (CYP3A4 inducer): sotorasib plasma PK in healthy subjects
Assay type: in vivo, human
condition.context: human, plasma, 960 mg, 960 mg sotorasib on day 1 (Reference), healthy subjects; read-out: AUClast (GLSM)
Protocol: Safety and tolerability monitoring were performed throughout the study.
measured.attribute: AUC(0-t) (ng·h/mL)
Give the value in ng·h/mL but do not write ng·h/mL after it.

Form: molecule = C=CC(=O)N1CCN(c2nc(=O)n(-c3c(C)ccnc3C(C)C)c3nc(-c4c(O)cccc4F)c(F)cc23)[C@@H](C)C1 (atropisomer, axis not shown; (M)) ; AUC(0-t) = 25400

###

procedure.summary: Drug-drug interaction study with rifampin (CYP3A4 inducer): sotorasib plasma PK in healthy subjects
Format: in vivo, human
condition.context: human, plasma, 960 mg, 960 mg sotorasib + 600 mg rifampin on day 3 (Test), single-dose rifampin; read-out: AUClast (GLSM)
Description: Safety and tolerability monitoring were performed throughout the study.
measured.attribute: AUC(0-t) (ng·h/mL)
Give the value in ng·h/mL but do not write ng·h/mL after it.

Form: compound = C=CC(=O)N1CCN(c2nc(=O)n(-c3c(C)ccnc3C(C)C)c3nc(-c4c(O)cccc4F)c(F)cc23)[C@@H](C)C1 (atropisomer, axis not shown; (M)) [Sotorasib] ; AUC(0-t) = 19400

###

procedure.summary: Drug-drug interaction study with itraconazole (CYP3A4 inhibitor): sotorasib plasma PK in healthy subjects
condition.context: human, in vivo, po, 360 mg, AUCinf (GLSM), 360 mg sotorasib + 200 mg itraconazole (Test), day 6, healthy subjects
measured.attribute: AUC(0-inf) (ng·h/mL)
Give the value in ng·h/mL but do not write ng·h/mL after it.

Form: compound = C=CC(=O)N1CCN(c2nc(=O)n(-c3c(C)ccnc3C(C)C)c3nc(-c4c(O)cccc4F)c(F)cc23)[C@@H](C)C1 (atropisomer, axis not shown; (M)) ; AUC(0-inf) = 31000
